- test-target: human plasma kallikrein (human, UniProt P03952 20-638)
- Sequence (P03952 20-638): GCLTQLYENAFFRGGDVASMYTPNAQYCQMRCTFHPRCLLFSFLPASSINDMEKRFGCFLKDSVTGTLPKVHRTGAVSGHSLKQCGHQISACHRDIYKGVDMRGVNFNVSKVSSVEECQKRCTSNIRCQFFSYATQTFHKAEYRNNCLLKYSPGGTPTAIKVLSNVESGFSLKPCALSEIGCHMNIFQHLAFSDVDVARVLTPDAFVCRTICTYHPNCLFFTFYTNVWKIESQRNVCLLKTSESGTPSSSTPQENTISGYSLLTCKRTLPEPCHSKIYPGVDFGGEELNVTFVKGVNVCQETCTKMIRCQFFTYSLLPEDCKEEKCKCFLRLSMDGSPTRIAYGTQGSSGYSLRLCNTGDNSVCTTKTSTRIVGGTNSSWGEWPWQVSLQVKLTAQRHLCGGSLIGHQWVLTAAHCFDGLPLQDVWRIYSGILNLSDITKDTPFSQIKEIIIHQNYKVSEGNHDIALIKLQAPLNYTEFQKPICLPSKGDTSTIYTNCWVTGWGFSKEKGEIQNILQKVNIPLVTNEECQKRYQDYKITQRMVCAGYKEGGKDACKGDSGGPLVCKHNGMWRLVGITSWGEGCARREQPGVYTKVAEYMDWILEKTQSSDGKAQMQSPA
- procedure-details: enzyme inhibition
readout: Ki (nM)
Use nM as the unit, but write only the number.

Worked examples follow.
[
  {
    "binder": "TW6189 (protein) EVVREVCSEQAETGPCRAMIWRWYFDVTEGKCAPFFYGGCYGNRNNFDTEEYCMAVCGSAI",
    "Ki (nM)": 4
  },
  {
    "binder": "TW6186 (protein) EVVREVCSEQAETGPCRAMHSRWYFDVTEGKCAPFFYGGCYGNRNNFDTEEYCMAVCGSAI",
    "Ki (nM)": 0.48
  },
  {
    "binder": "TW6188 (protein) EVVREVCSEQAETGPCRAMIYRWYFDVTEGKCAPFFYGGCYGNRNNFDTEEYCMAVCGSAI",
    "Ki (nM)": 4
  }
]

Now turn to the next binder.
Record TW6187 (protein) EVVREVCSEQAETGPCRAMIFRWYFDVTEGKCAPFFYGGCYGNRNNFDTEEYCMAVCGSAI . Reported Ki: 3.8
